Tested on: NCI-H522 lung
Assay: NCI tumour cell line growth inhibition, 48 h
Readings of TGI for the listed compounds

| compound | TGI |
| --- | --- |
| CCOc1ccc(NC(=O)CC2C(=O)Nc3ccccc3S2(=O)=O)cc1 (stereo not drawn) | > 100 µM |
| CN(c1ccccc1)c1c(Cl)c(=O)oc2c1ccc1occc12 | > 100 µM |
| CN(C)c1cc[n+](-c2nc(/N=C(\[O-])C(F)(F)F)nc3c2ncn3C2CC(O)C(CO)O2)cc1 (stereo not drawn) | > 100 µM |
| CCOC(=O)Cc1nc2c(N)ncnc2n1C1OC(COC(C)=O)C(OC(C)=O)C1OC(C)=O (stereo not drawn) | > 100 µM |
| CCOC(=O)C1=COC(C)(CCc2ccccc2)CC1=O (stereo not drawn) | 89.8 µM |
| CN1c2ccccc2N(C(=O)c2ccccc2)C(CC(=O)O)c2cccn21 (stereo not drawn) | > 100 µM |
| CC1=C(C(=O)Nc2cc(F)c(F)cc2F)C(c2ccc([N+](=O)[O-])cc2)C(C(=O)Nc2cc(F)c(F)cc2F)=C(C)N1 | 55.6 µM |
| C/C1=C\C=C(\C(C)C)CC/C(C(=O)O)=C\CC/C(C)=C/CC1 | 39.5 µM |
| Cn1c(N/N=C/c2ccccc2)nc(-c2ccc([N+](=O)[O-])cc2)c(C#N)c1=O | > 100 µM |
| N#CC1c2ccccc2C=CN1C(=O)N(c1ccccc1)c1ccccc1 (stereo not drawn) | 3.33 µM |
| COc1cc(-c2ccccc2N)c2cccnc2c1OC | 17.9 µM |
| O=C(Nc1ccccc1)c1cc(S(=O)(=O)N2CCNNC2=O)c(S)cc1Cl | > 100 µM |
| COc1cc(N(Cc2ccc3oc(=O)c(-c4ccccc4)nc3c2)Cc2ccc3oc(=O)c(-c4ccccc4)nc3c2)cc(OC)c1OC | > 10 µM |
| O=C1c2ccccc2C(=O)c2c(OCCOCCO)cccc21 | > 100 µM |
| C[N+]1(CCN[N+]2(C)CCCCC2)CCc2ccccc2C1 (stereo not drawn) | > 100 µM |
| CCCC(CCN)(CCN)[N+](=O)[O-] | > 100 µM |
| O=c1cnn(CCOCP(=O)(O)O)c(=O)[nH]1 | > 100 µM |
| Cc1ccc2c(c1)C(=O)C(C1OC(=O)c3ccccc31)C2 (stereo not drawn) | > 100 µM |
| O=C(NC(=S)NC(=O)c1cc(O)c(O)c(O)c1)c1cc(O)c(O)c(O)c1 | 70.3 µM |
| Cn1cc(C2=C(c3cn(CCCCCSC(=N)N)c4ccccc34)C(=O)NC2=O)c2ccccc21 | 5.59 µM |
| NNC(=O)c1cc(=O)[nH][nH]1 | > 100 µM |
| c1cnc(N2CCN(Cc3c[nH]c4ccccc34)CC2)nc1 | > 100 µM |
| O=C1C(CN2CCOCC2)CCCC1CN1CCOCC1 (stereo not drawn) | 0.156 µM |
| CCc1nc2ccc(NCCN(C)C)c3c(=O)c4ccccc4n1c23 | 4.89 µM |
| CC(=O)Oc1ccc(/C=C/C(=O)O[C@@H](C(=O)O)[C@@H](OC(=O)/C=C/c2ccc(OC(C)=O)c(OC(C)=O)c2)C(=O)O)cc1OC(C)=O | > 100 µM |
| CC(C)(C)OC(=O)NCCCCC(NC(=O)c1ccccc1)C(N)=O (stereo not drawn) | > 100 µM |
| c1ccc2c3c([nH]c2c1)C(c1ccc(C2NCCc4c2[nH]c2ccccc42)cc1)NCC3 (stereo not drawn) | 1.49 µM |
| CN(C)/N=C1\CC(c2ccccc2)C(C#N)(C#N)C1(C#N)C#N (stereo not drawn) | 35.3 µM |
| O=C(CC(Cl)=C(Cl)Cl)c1cccc(Cl)c1Cl | > 100 µM |
| CCOc1cc(NC(C)=O)ccc1C(=O)NN1C(=O)CSC1c1ccccc1 (stereo not drawn) | > 100 µM |
| Cc1ccc(S(=O)(=O)N/N=C(/c2nc3ccc([N+](=O)[O-])cc3[nH]c2=O)C(O)c2ccc(C(O)/C(=N\NS(=O)(=O)c3ccc(C)cc3)c3nc4ccc([N+](=O)[O-])cc4[nH]c3=O)cc2)cc1 (stereo not drawn) | 55.7 µM |
| C(=C\N1CCCCC1)/c1nnnn1-c1ccccc1 | > 100 µM |
| Fc1cccc(F)c1C1SCc2nc3ccc(Cl)cc3n21 (stereo not drawn) | > 100 µM |
| O=C1Nc2ccccc2/C1=c1\[nH]c(=O)/c(=C\c2ccc(OCc3ccccc3)cn2)[nH]c1=O | > 100 µM |
| CC(SC(=O)Nc1ccc(N=Nc2ccccc2)cc1)C(=O)O (stereo not drawn) | > 100 µM |
| N#C[C@H](c1nc2ccccc2s1)c1nc2ccccc2nc1Cl | > 100 µM |
| CC(=O)N1CCn2c1nc1cc(Cl)ccc12 | > 100 µM |
| CC1=C(Nc2ccc(N3CCN(C)CC3)cc2)C(=O)c2cncnc2C1=O | 39.3 µM |

* * *

System: UO-31 renal
Assay: NCI tumour cell line growth inhibition, 48 h; in the data active = GI50 below about 0.43 µM; inactive = the rest
Labels: active, inactive

| molecule | label-value |
| --- | --- |
| O=C1Cc2cc(C(=O)NC3C[C@H]4CC[C@@H](C3)N4S(=O)(=O)CC3CCN(CCCC(F)(F)F)CC3)c(Cl)cc2N1 (stereo not given in full) | inactive |
| COc1cc2nc3cc([N+](=O)[O-])ccc3c(NCCNCC(C)(C)O)c2cc1OC | inactive |
| CSc1ccc2c(c1)C(N1CCN(C)CC1)Cc1ccccc1S2 (stereo not given) | inactive |
| CC(=O)c1c(C)[nH]c(-c2nc3ccc(N4CCN(C)CC4)cc3[nH]2)c1-c1ccccc1 | active |
| COc1ccc(N=N/C(C(=O)C(F)(F)F)=C(\O)c2ccc(Cl)cc2)cc1 | inactive |
| CC[n+]1c(/C=C/C=C2\N(C)c3ccccc3C2(C)C)sc2ccccc21 | inactive |
| CCCCCCC[CH2][Sn]1([CH2]CCCCCCC)[O]C(=O)c2cccnc2[O]1 | inactive |
| COc1ccc(/C(C#N)=C2C=C/C(=N/O)c3ccccc3\2)cc1 | inactive |
| CCOC(=O)c1cnc2c(C)cccc2c1Nc1ccc(C(C)=O)cc1 | inactive |
| c1cc2c(cn1)Nc1ccncc1S2 | inactive |

* * *

Test system: MCF7 breast
Experiment: NCI tumour cell line growth inhibition, 48 h

| compound | TGI |
| --- | --- |
| O=C(Nc1ccccc1)c1cc(S(=O)(=O)N2CCNNC2=O)c(S)cc1Cl | > 100 µM |
| CCOc1cc(NC(C)=O)ccc1C(=O)NN1C(=O)CSC1c1ccccc1 (stereo unspecified) | > 100 µM |
| CCOC(=O)c1cnc2c(C)cccc2c1Nc1ccc(C(C)=O)cc1 | > 100 µM |
| CC(=N\N)/C(C)=N/N=C(C)/C(C)=N/N=C(C)/C(C)=N/N | > 100 µM |
| O=[N+]([O-])c1cccc(C2CC(c3ccccc3)=Nc3ccccc3S2)c1 (stereo unspecified) | 13.3 µM |
| CN(CCCNC(=O)CCOCCOCCOCCNC(=O)Cc1ccc2ccc3cccc4ccc1c2c34)CCCNc1cc(-c2ccc3ccccc3c2)nc2ccccc12 | 0.771 µM |
| C[C@H](C/C=C/C(C)(C)O)[C@H]1CC[C@@]2(C)[C@@H]3CC[C@H]4C(C)(C)[C@@H](O)CC[C@@]45C[C@@]35CC[C@]12C | > 100 µM |
| N#C[C@H](c1nc2ccccc2s1)c1nc2ccccc2nc1Cl | 24.8 µM |
| CSC(=Nc1ccccc1)/N=C(\SCc1ccccc1)N(C)C | 1.19 µM |
| O=C1Cc2cc(C(=O)NC3C[C@H]4CC[C@@H](C3)N4S(=O)(=O)CC3CCN(CCCC(F)(F)F)CC3)c(Cl)cc2N1 (stereo partly specified) | > 100 µM |
| CC(=O)N1CCn2c1nc1cc(Cl)ccc12 | > 100 µM |
| COc1ccccc1C[C@@H]1OC2(C=CC(=O)C=C2)O[C@H]1Cc1ccccc1OC | 17.6 µM |
| CC(C)C1N(C)c2ccc(Cl)cc2[C@H]2c3ccccc3CCN12 (stereo partly specified) | > 100 µM |
| O=C1Nc2ccccc2Nc2ccncc21 | > 100 µM |
| O=C1c2cn[nH]c2C(c2ccccc2)N1c1ccccc1 (stereo unspecified) | > 10 µM |
| O=S(=O)(c1cnccc1N1CCN(CCO)CC1)N1CCCC1 | > 100 µM |
| COc1cc2cc(Oc3ccc(NC(=O)Nc4ccc(Cl)c(Cl)c4)cc3)c(C)nc2cc1OC | 13.8 µM |
| Cc1ccc(NC(=O)C(=O)CC(=O)c2sc(Nc3c(C)cccc3C)nc2C)cc1C | > 100 µM |
| CSc1c(C(=O)Nc2ccc(Cl)cc2)c(N)n(N)c(=O)c1C#N | > 100 µM |
| C[N+]1(CCN[N+]2(C)CCCCC2)CCc2ccccc2C1 (stereo unspecified) | > 100 µM |
| COc1nnc2ccc(N3CCC(c4ccc(OCCN5CCN(C)C(=O)[C@H]5C)cc4)CC3)nn12 | > 100 µM |
